Listing: MIC of selected molecules
# System: Klebsiella pneumoniae (Kp)
# protocol-summary: Minimum inhibitory concentration (MIC), bacteria in nutrient agar
# Format: cell-based, Klebsiella pneumoniae ATCC 8308
# setup-conditions: nutrient agar pH 8.2, 30° C., 48 hours
metric-name: MIC

{"smiles-input": "COc1ccc(-n2nnnc2SCSC#N)cc1", "metric-name": "MIC", "endpoint-value": "100 µg/mL"}
{"smiles-input": "N#CSCSc1nnnn1-c1ccc(C#N)cc1", "metric-name": "MIC", "endpoint-value": "100 µg/mL"}
{"smiles-input": "N#CSCSc1nnnn1C1CCCCC1", "metric-name": "MIC", "endpoint-value": "100 µg/mL"}
{"smiles-input": "CC(C)(C)c1ccc(-n2nnnc2SCSC#N)cc1", "metric-name": "MIC", "endpoint-value": "100 µg/mL"}
{"smiles-input": "N#CSCSc1nnnn1-c1ccc(Br)cc1", "metric-name": "MIC", "endpoint-value": "500 µg/mL"}
{"smiles-input": "N#CSCSc1nnnn1-c1ccc([N+](=O)[O-])cc1", "metric-name": "MIC", "endpoint-value": "> 100 µg/mL"}
{"smiles-input": "N#CSCSc1nnnn1-c1ccc(F)cc1", "metric-name": "MIC", "endpoint-value": "250 µg/mL"}
{"smiles-input": "Cc1ccc(-n2nnnc2SCSC#N)cc1", "metric-name": "MIC", "endpoint-value": "100 µg/mL"}
{"smiles-input": "N#CSCSc1nnnn1-c1cccc(Cl)c1", "metric-name": "MIC", "endpoint-value": "250 µg/mL"}
{"smiles-input": "N#CSCSc1nnnn1-c1ccccc1", "metric-name": "MIC", "endpoint-value": "100 µg/mL"}
{"smiles-input": "N#CSCSc1nnnn1-c1ccc(Cl)cc1", "metric-name": "MIC", "endpoint-value": "50 µg/mL"}
{"smiles-input": "Cc1cccc(-n2nnnc2SCSC#N)c1", "metric-name": "MIC", "endpoint-value": "100 µg/mL"}

Source listed as patent US5455222A.
